# test: Chemical stability of aqueous solution state of the compound assessed as compound remaining after 24 hrs by UV/HPLC analysis
# Type: physicochemical
# assay setup: read-out: Stability
assay readout: remaining at 24 h (%)
Return type: number; implicit unit %.

Look at this compound and give its reported remaining at 24 h. C=C[C@]1(C)C[C@@H](OC(=O)CSc2cncc(COP(=O)([O-])[O-])c2)[C@]2(C)[C@H](C)CC[C@]3(CCC(=O)[C@H]32)[C@@H](C)[C@@H]1O.[Na+].[Na+] 98.1

* * *

# test: Mean residence time in Sprague-Dawley rat at 10 mg/kg, iv
# Format: ADME, organism-based
# Set-up: dose 10 mg/kg, route intravenous
# assay setup: in vivo
Entries and their MRT values follow.
Return type: number; implicit unit min.

C=C[C@]1(C)C[C@@H](OC(=O)CSc2cncc(COP(=O)([O-])[O-])c2)[C@]2(C)[C@H](C)CC[C@]3(CCC(=O)[C@H]32)[C@@H](C)[C@@H]1O.[Na+].[Na+] :: 39

Lab note: next molecule to report on.
Look at this molecule and give its reported MRT. C=C[C@]1(C)C[C@@H](OC(=O)CSc2cncc(CO)c2)[C@]2(C)[C@H](C)CC[C@]3(CCC(=O)[C@H]32)[C@@H](C)[C@@H]1O 32.4

* * *

# test: Clearance in Sprague-Dawley rat at 10 mg/kg, iv
# Type: ADME, organism-based
# Parameters: dose 10 mg/kg, route intravenous
# assay setup: in vivo
Entries and their clearance values follow.
Return type: number; implicit unit mL/min/kg.

C=C[C@]1(C)C[C@@H](OC(=O)CSc2cncc(COP(=O)([O-])[O-])c2)[C@]2(C)[C@H](C)CC[C@]3(CCC(=O)[C@H]32)[C@@H](C)[C@@H]1O.[Na+].[Na+] :: 83.3

Lab note: next molecule to report on.
Look at this molecule and give its reported clearance. C=C[C@]1(C)C[C@@H](OC(=O)CSc2cncc(CO)c2)[C@]2(C)[C@H](C)CC[C@]3(CCC(=O)[C@H]32)[C@@H](C)[C@@H]1O 48

* * *

Reported IC50 for target or system UniProt:P05177, by entry.
Sequence (P05177 whole entry): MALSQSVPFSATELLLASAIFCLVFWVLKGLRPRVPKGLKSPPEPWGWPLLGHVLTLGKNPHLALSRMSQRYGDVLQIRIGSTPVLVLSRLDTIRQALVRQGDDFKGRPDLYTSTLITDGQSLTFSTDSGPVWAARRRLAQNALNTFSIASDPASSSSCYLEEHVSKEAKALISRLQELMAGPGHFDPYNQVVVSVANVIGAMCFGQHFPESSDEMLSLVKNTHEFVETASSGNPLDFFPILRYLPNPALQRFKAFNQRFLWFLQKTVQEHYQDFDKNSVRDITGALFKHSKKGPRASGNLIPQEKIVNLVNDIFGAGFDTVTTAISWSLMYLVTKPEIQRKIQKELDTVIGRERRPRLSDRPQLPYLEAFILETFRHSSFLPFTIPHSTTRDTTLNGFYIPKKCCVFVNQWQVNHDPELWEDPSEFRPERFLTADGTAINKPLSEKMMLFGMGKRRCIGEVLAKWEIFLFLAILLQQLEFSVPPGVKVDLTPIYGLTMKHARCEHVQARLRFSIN

Record excerpt, results attached:
C=C[C@]1(C)C[C@@H](OC(=O)CSc2cncc(N)c2)[C@]2(C)[C@H](C)CC[C@]3(CCC(=O)[C@H]32)[C@@H](C)[C@@H]1O :: > 25 µM
C=C[C@]1(C)C[C@@H](OC(=O)CSc2cccc(CO)c2)[C@]2(C)[C@H](C)CC[C@]3(CCC(=O)[C@H]32)[C@@H](C)[C@@H]1O :: > 25 µM
C=C[C@]1(C)C[C@@H](OC(=O)CSc2cncc(NC(=O)CN3CCC(O)CC3)c2)[C@]2(C)[C@H](C)CC[C@]3(CCC(=O)[C@H]32)[C@@H](C)[C@@H]1O :: > 25 µM
C=C[C@]1(C)C[C@@H](OC(=O)CSc2ccccn2)[C@]2(C)[C@H](C)CC[C@]3(CCC(=O)[C@H]32)[C@@H](C)[C@@H]1O :: > 10 µM
C=C[C@]1(C)C[C@@H](OC(=O)CS[C@@H]2CC[C@@H](N)C[C@H]2O)[C@]2(C)[C@H](C)CC[C@]3(CCC(=O)[C@H]32)[C@@H](C)[C@@H]1O :: > 25 µM

Lab note: next compound to report on.
Look at this compound and give its reported IC50. C=C[C@]1(C)C[C@@H](OC(=O)CSc2cncc(NC(=O)CN3CCCC(O)C3)c2)[C@]2(C)[C@H](C)CC[C@]3(CCC(=O)[C@H]32)[C@@H](C)[C@@H]1O (stereo partly specified) > 25 µM

These data points were gathered from ChEMBL document CHEMBL3286253.
